All values here come from patent US12540136B2.

Listed here are compounds together with their documented CC50 at 6 days.
assay-name: Cytotoxicity, MTS dye reduction assay
Assay type: cell-based
conditions-used: human; MT-4 cells, MTS dye reduction, 6 days incubation; read-out: CC50, HIV-1(NL4-3) in MT-4 Cells

{"columns": ["compound", "CC50 at 6 days"],
 "data": [
  ["CON(C)C(=O)[C@@H](OC(C)(C)C)c1c(C)nc2c(c(C)c(C)n2Cc2cnn(C)c2)c1-c1ccc(Cl)cc1 [Example 10]", "> 10 µM"],
  ["Cc1nc2c(c(C)c(C)n2Cc2cnn(C)c2)c(-c2ccc(Cl)cc2)c1[C@@H](C#N)OC(C)(C)C [Example 6]", "> 10 µM"],
  ["Cc1nc2c(c(C)c(C)n2Cc2cnn(C)c2)c(-c2ccc(Cl)cc2)c1[C@H](OC(C)(C)C)c1nnn[nH]1 [Example 7]", "> 10 µM"],
  ["Cc1nc2c(c(C)c(C)n2Cc2cnn(C)c2)c(-c2ccc(Cl)cc2)c1[C@H](OC(C)(C)C)C(=O)OCc1oc(=O)oc1C [Example 4]", "> 10 µM"],
  ["Cc1nc2c(c(C)c(C)n2Cc2cnn(C)c2)c(-c2ccc(Cl)cc2)c1[C@H](OC(C)(C)C)C(=O)NO [Example 11]", "3.16 µM"],
  ["Cc1nc2c(c(C)c(C)n2CC2CCO2)c(-c2ccc(Cl)cc2)c1[C@H](OC(C)(C)C)C(=O)OCc1oc(=O)oc1C (some centres unmarked) [Example 2]", "> 10 µM"],
  ["COCCOCCOC(=O)[C@@H](OC(C)(C)C)c1c(C)nc2c(c(C)c(C)n2Cc2cnn(C)c2)c1-c1ccc(Cl)cc1 [Example 16]", "> 10 µM"],
  ["CNC(=O)[C@@H](OC(C)(C)C)c1c(C)nc2c(c(C)c(C)n2Cc2cnn(C)c2)c1-c1ccc(Cl)cc1 [Example 8]", "4.98 µM"],
  ["Cc1nc2c(c(C)c(C)n2Cc2cnn(C)c2)c(-c2ccc(Cl)cc2)c1[C@H](OC(C)(C)C)C(=O)Nc1nn[nH]n1 [Example 14]", "> 10 µM"],
  ["CONC(=O)[C@@H](OC(C)(C)C)c1c(C)nc2c(c(C)c(C)n2Cc2cnn(C)c2)c1-c1ccc(Cl)cc1 [Example 9]", "8.89 µM"],
  ["CCCCCCCCCCCCCOC(=O)[C@@H](OC(C)(C)C)c1c(C)nc2c(c(C)c(C)n2Cc2cnn(C)c2)c1-c1ccc(Cl)cc1 [Example 1]", "> 10 µM"],
  ["Cc1nc2c(c(C)c(C)n2Cc2cnn(C)c2)c(-c2ccc(Cl)cc2)c1[C@H](OC(C)(C)C)C(N)=O [Example 5]", "> 10 µM"],
  ["COC(=O)OCOC(=O)[C@@H](OC(C)(C)C)c1c(C)nc2c(c(C)c(C)n2Cc2cnn(C)c2)c1-c1ccc(Cl)cc1 [Example 15]", "> 10 µM"],
  ["COCCn1c(C)c(C)c2c(-c3ccc(Cl)cc3)c([C@H](OC(C)(C)C)C(=O)OCc3oc(=O)oc3C)c(C)nc21 [Example 3]", "> 10 µM"]
]}

* * *

# reported EC50; entries follow
Tested on: HIV-1 (NL4-3)
assay-name: HIV-1 (wild type) inhibitory effect, decrease in viral cytopathic effect (CPE) in MT-4 cells
Type: cell-based
conditions-used: Human immunodeficiency virus 1, NL43, MT4, 144 h; NL4-3 strain, MT-4 host cells, 6 days incubation, CPE reduction

{"columns": ["compound", "cmp", "EC50 / nM"],
 "data": [
  ["COCCn1c(C)c(C)c2c(-c3ccc(Cl)cc3)c([C@H](OC(C)(C)C)C(=O)OCc3oc(=O)oc3C)c(C)nc21", "=", 22.7],
  ["CON(C)C(=O)[C@@H](OC(C)(C)C)c1c(C)nc2c(c(C)c(C)n2Cc2cnn(C)c2)c1-c1ccc(Cl)cc1", ">", 10000],
  ["CCCCCCCCCCCCCOC(=O)[C@@H](OC(C)(C)C)c1c(C)nc2c(c(C)c(C)n2Cc2cnn(C)c2)c1-c1ccc(Cl)cc1", ">", 10000],
  ["Cc1nc2c(c(C)c(C)n2Cc2cnn(C)c2)c(-c2ccc(Cl)cc2)c1[C@H](OC(C)(C)C)C(=O)Nc1nn[nH]n1", ">", 10000],
  ["COC(=O)OCOC(=O)[C@@H](OC(C)(C)C)c1c(C)nc2c(c(C)c(C)n2Cc2cnn(C)c2)c1-c1ccc(Cl)cc1", "=", 31.6],
  ["COCCOCCOC(=O)[C@@H](OC(C)(C)C)c1c(C)nc2c(c(C)c(C)n2Cc2cnn(C)c2)c1-c1ccc(Cl)cc1", ">", 10000],
  ["Cc1nc2c(c(C)c(C)n2Cc2cnn(C)c2)c(-c2ccc(Cl)cc2)c1[C@H](OC(C)(C)C)c1nnn[nH]1", "=", 361],
  ["Cc1nc2c(c(C)c(C)n2CC2CCO2)c(-c2ccc(Cl)cc2)c1[C@H](OC(C)(C)C)C(=O)OCc1oc(=O)oc1C (some centres unmarked)", "=", 120],
  ["Cc1nc2c(c(C)c(C)n2Cc2cnn(C)c2)c(-c2ccc(Cl)cc2)c1[C@H](OC(C)(C)C)C(N)=O", ">", 10000],
  ["Cc1nc2c(c(C)c(C)n2Cc2cnn(C)c2)c(-c2ccc(Cl)cc2)c1[C@H](OC(C)(C)C)C(=O)OCc1oc(=O)oc1C", "=", 5.27],
  ["Cc1nc2c(c(C)c(C)n2Cc2cnn(C)c2)c(-c2ccc(Cl)cc2)c1[C@@H](C#N)OC(C)(C)C", ">", 10000]
]}
